- TARGET OF ASSAY: T1, human 4-1BB, full length, on transfected cells (human, UniProt Q07011 24-255)
- T1 construct: whole, on cells; also called CHOK1-h4-1BB
- T1 sequence (Q07011 24-255): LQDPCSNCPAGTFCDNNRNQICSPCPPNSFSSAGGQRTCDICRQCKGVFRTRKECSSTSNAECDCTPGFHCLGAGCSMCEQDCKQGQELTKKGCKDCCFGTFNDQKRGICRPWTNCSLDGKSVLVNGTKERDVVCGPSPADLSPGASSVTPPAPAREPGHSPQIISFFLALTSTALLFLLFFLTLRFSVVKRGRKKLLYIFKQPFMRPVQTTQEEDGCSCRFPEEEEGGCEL
- EXPERIMENTAL PROTOCOL: FACS on CHOK1-h4-1BB cells, Alexa 488 secondary antibody, average fluorescence intensity
MEASUREMENT KIND: EC50 (read off the curve)

In the examples that follow, each entry is paired with its recorded EC50 (read off the curve).
BINDER	EC50 (read off the curve)
57B3D10 (antibody, V domains shown, also called 4-1BB fully human antibody 57B3D10) VH: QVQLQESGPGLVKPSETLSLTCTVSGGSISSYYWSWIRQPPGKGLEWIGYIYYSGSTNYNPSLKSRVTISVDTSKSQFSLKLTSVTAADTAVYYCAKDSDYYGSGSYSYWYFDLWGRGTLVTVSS VL: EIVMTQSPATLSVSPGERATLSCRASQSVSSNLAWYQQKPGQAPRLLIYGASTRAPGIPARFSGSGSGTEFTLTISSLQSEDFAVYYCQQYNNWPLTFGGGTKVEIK	~0.05 mg/L
52F4G2 (antibody, V domains shown) VH: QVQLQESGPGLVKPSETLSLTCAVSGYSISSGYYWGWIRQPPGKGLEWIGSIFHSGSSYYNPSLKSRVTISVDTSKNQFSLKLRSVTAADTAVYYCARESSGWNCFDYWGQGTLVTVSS VL: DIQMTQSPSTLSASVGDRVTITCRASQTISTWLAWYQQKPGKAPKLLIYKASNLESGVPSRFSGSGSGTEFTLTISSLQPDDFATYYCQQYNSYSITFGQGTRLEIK	~0.05 mg/L
113F6C6 (antibody, V domains shown, also called 4-1BB fully human antibody 113F6C6; 113F6F6) VH: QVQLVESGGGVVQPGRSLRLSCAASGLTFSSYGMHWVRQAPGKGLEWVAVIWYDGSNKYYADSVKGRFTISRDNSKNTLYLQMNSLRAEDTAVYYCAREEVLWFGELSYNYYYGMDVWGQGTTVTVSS VL: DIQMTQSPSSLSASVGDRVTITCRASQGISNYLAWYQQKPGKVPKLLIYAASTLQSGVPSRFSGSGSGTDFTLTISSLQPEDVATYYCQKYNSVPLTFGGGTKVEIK	~0.1 mg/L

Which EC50 (read off the curve) value is on record for 11H10C9 (antibody, V domains shown) VH: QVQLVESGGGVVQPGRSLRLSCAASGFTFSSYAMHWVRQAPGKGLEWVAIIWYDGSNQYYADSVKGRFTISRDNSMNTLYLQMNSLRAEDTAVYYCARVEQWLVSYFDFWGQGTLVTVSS VL: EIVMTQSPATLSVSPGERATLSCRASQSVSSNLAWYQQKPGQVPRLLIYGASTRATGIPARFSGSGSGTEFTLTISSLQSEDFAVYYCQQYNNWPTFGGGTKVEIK ?
~0.1 mg/L
